# System Name: Glutamine synthetase (GS) (Mus musculus, UniProt P15105, T301A)
# Construct: pET-24a(+) plasmid pNG189, codon optimised; E. coli BL21(DE3); HisTrap and Superdex 200; homomeric decamer
# Sequence (P15105 2-373 T301A): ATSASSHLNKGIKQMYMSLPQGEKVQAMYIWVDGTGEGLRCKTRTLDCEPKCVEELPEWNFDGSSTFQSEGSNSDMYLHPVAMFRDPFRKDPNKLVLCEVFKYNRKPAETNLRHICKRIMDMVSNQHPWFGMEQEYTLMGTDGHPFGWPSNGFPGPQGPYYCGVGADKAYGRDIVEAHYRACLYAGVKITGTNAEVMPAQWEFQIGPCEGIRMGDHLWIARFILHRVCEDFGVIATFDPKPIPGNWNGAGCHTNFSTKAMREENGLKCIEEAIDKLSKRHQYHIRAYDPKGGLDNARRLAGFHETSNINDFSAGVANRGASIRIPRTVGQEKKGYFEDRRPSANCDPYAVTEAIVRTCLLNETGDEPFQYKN
# Procedure Summary: gamma-glutamyl hydroxamate assay, absorbance […] nm
Observable: IC50

>>> result("CS(=N)(=O)CC[C@H](N)C(=O)O (stereo partly shown)")
"> 100 mM"

----------
# System Name: Glutamine synthetase (GS) (Mus musculus, UniProt P15105)
# Sequence (P15105 2-373): as the sequence (P15105 2-373 T301A) above, with A300T counted along it
pIC50: −log10 of the molar value.
Observable: pIC50

>>> number("CS(=N)(=O)CC[C@H](N)C(=O)O (stereo partly shown) [methionine sulfoximine]")
3.74
